Consider the following molecules; for each one, report its Ligand-pharmacophore element distance, pharmacophore element C3.
Target: MASP-2 CCP2-SP (Homo sapiens (Human), UniProt O00187)
Sequence (O00187 445-686): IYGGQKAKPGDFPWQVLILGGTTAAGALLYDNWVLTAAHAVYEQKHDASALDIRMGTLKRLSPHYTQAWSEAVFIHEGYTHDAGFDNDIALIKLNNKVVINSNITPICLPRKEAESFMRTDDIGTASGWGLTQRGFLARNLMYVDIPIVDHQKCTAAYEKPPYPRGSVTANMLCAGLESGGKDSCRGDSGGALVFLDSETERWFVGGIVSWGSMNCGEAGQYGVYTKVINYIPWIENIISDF
Sequence (O00187 364-432 partner): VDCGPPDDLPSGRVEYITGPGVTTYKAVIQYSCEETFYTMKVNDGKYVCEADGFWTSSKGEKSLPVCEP
Assay: MASP-2 co-crystallization, X-ray crystallography and structure analysis (H-bonds, van der Waals contacts);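 as to Ligand-pharmacophore element distance, pharmacophore element C3: distance from averaged pharmacophore element to bound ligand; missing value means element absent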
Conditions: Table A4-1; element C3
Counter-ions that a name gives are not always drawn.
When you answer, write just the number.

molecule Cc1nc(N)ccc1CNC(=O)[C@H](C)NC(=O)[C@H]1C[C@@H](c2cccc3ccccc23)CCN1.Cl.Cl [1297_5] , Ligand-pharmacophore element distance, pharmacophore element C3 observed: 0.29

get_value(item= C[C@H](NC(=O)[C@H](N)CCc1ccccc1)C(=O)NCc1ccc(N)nc1.Cl.Cl [1007_1] , readout=Ligand-pharmacophore element distance, pharmacophore element C3) returns 0

Noted for C[C@H](NC(=O)[C@H]1C[C@@H](c2ccccc2)CCN1)C(=O)NCc1ccc(C(=N)N)cc1 (stereo in doubt) [compound 1065] : its Ligand-pharmacophore element distance, pharmacophore element C3 reads 0

Quick note, Ligand-pharmacophore element distance, pharmacophore element C3 for Cc1nc(N)ccc1CNC(=O)[C@H](C)NC(=O)[C@H]1C[C@H](Cc2ccc(-c3ccccc3)cc2)CN1 [compound 1351] landed at 0.12

The molecule listed as C[C@H](NC(=O)[C@H]1C[C@@H](c2ccccc2)CN1)C(=O)NCc1ccc(C(=N)N)cc1 [compound 1037] shows Ligand-pharmacophore element distance, pharmacophore element C3 equal to 0

Record summary for CC(=O)Nc1ccc(CCN[C@H](CCc2ccccc2)C(=O)N[C@@H](C)C(=O)NCc2ccc(N)nc2C)cc1 [compound 1368, Dihydrochloride] : reported Ligand-pharmacophore element distance, pharmacophore element C3 = 0.16

Reported Ligand-pharmacophore element distance, pharmacophore element C3 ( CC(NC(=O)C(CCc1ccccc1)NCc1ccc(C(=O)N2CCOCC2)cc1)C(=O)NCc1ccc(C(=N)N)cc1.Cl.Cl (stereo not shown) [1153_A] ) = 0

---

Target: MASP-2 CCP2-SP (Homo sapiens (Human), UniProt O00187)
Assay: MASP-2 co-crystallization, X-ray crystallography and structure analysis (H-bonds, van der Waals contacts)
Conditions: Table A5-2 pharmacophore distance, S3/S4 region
Where a name gives a salt, the structure may show the parent alone.
Assay readout: d(O2,N2)
Answer with the value's number alone.

Lookup result for CC(NC(=O)C1CC(Cc2ccccc2)CN1)C(=O)NCc1cnc2c(c1)c(Cl)cn2C.Cl.Cl (stereo not shown) [1450_B] ; measured d(O2,N2): 2.67

// d(O2,N2) value for C[C@H](NC(=O)[C@H]1C[C@H](Cc2ccccc2)CN1)C(=O)NCc1ccc(C(=N)N)cc1.Cl.Cl [1306_2] : 2.71

Form: compound = C[C@H](NC(=O)[C@H]1C[C@H](Cc2ccccc2)CN1)C(=O)NCc1cc(Cl)ccc1-n1cnnn1 [compound 1371, Hydrochloride] ; d(O2,N2) = 2.79

Measured d(O2,N2), C[C@H](NC(=O)[C@H]1C[C@@H](c2ccccc2)CCN1)C(=O)NCc1cc(Cl)ccc1O.Cl [1078_13] : 2.79

// Cc1nc(N)ccc1CNC(=O)[C@H](C)NC(=O)[C@H]1C[C@@H](c2cccc3ccccc23)CCN1.Cl.Cl [1297_4] : d(O2,N2) value = 2.76

So for Cc1nc(N)ccc1CNC(=O)[C@H](C)NC(=O)[C@H]1C[C@H](Cc2ccc(-c3ccccc3)cc2)CN1 , the logged d(O2,N2) turned out to be 2.76

For C[C@H](NC(=O)[C@H]1C[C@@H](c2ccccc2)CCN1)C(=O)NCc1cc(Cl)ccc1O.Cl [1078_15] the compound record lists d(O2,N2) as 2.84

Where do these numbers come from? They come from patent US12195427B2.
